- Tested on: MALME-3M melanoma
- METHOD: NCI tumour cell line growth inhibition, 48 h
Hi there, I'd appreciate the recorded GI50 for every entry that follows.

IN: Reported GI50, compound "Cc1cc(N(CCNc2ccnc3cc(Cl)ccc23)Cc2ccco2)nc(Cl)n1" : ____
OUT: 1.78 µM

IN: What do you get for "Cn1ccnc1C(=O)/C=C/c1ccccc1" ?
OUT: 12.3 µM

IN: Same question for "COC(=O)C1=C(C)NC(C)=C(C(=O)OC)C1/C=C(Cl)/C=C/c1ccccc1" please.
OUT: 19.8 µM

IN: Subsequent entry: "O=C1/C(=C/c2ccc(Cl)cc2)N=C(c2ccccc2)N1CCc1cccs1"
OUT: 35.1 µM

IN: Follow-up item: "COc1cc2c(cc1Nc1nc(Nc3ccsc3C(N)=O)c3cc[nH]c3n1)N(C(=O)CN(C)C)CCC2(C)C"
OUT: 1.48 µM

* * *

- System: SK-MEL-28 melanoma
- METHOD: NCI tumour cell line growth inhibition, 48 h
So I've got a bunch of molecules here, and I need their TGI values.

IN: What value of TGI has been reported for the following molecule? "N#C/C(=C\c1cc(Cl)cc(Cl)c1)c1ccccn1"
OUT: > 100 µM

IN: Queued: "Nc1[nH]c(=S)nc2snnc12"
OUT: > 100 µM

IN: What do you have for "CN(C)c1ccccc1CN1CCCN(Cc2ccccc2N(C)C)C1c1ccncc1" ?
OUT: 23.7 µM

IN: Follow-up item: CN1c2ccccc2C(C)(C)C12C=Cc1cc(O)ccc1O2 (stereo unspecified)
OUT: 15.5 µM

IN: Now try COc1ccc(OC)c(CC2CCc3nc(N)nc(N)c3C2)c1 (stereo unspecified) .
OUT: > 92.5 µM

IN: Consider next the molecule "COCCCNC(=O)CC(=O)NCCCOC" in the same way.
OUT: > 100 µM

* * *

- System: OVCAR-4 ovarian
- METHOD: NCI tumour cell line growth inhibition, 48 h
QUANTITY: TGI

IN: Fill in the recorded TGI for this compound, with OVCAR-4 ovarian as test system: "O=C(Nc1ccccc1)NS(=O)(=O)c1ccc(-n2nc3c(c2-c2ccc(Cl)cc2)Cc2ccccc2-3)cc1"
OUT: > 100 µM

IN: Would you kindly repeat that for "COc1cc(O)c(C(=O)/C=C/c2ccc(O)cc2)c(O)c1[C@@H]1C[C@H](CCc2ccc(O)cc2)O[C@H](c2ccc(O)cc2)C1" ?
OUT: 16.8 µM

IN: How about this compound: "CCCCCCCCCCCCCC[S+](C)C"
OUT: 7.31 µM

IN: Same again, this time with "Nc1nc(Cl)cc(NCCC2(CO)CCC2)n1"
OUT: > 100 µM

IN: Queued: "O=C1CCC(=O)N1n1c(Cc2ccc(Cl)cc2)n[nH]c1=O"
OUT: > 100 µM

IN: // repeat for "Cc1cccnc1/N=C/c1c(O)n(C)c(=O)[nH]c1=O" and report
OUT: > 100 µM

IN: And for COC(=O)C1CCC(=O)N1C(c1ccc(OC)cc1)c1ccc(OC)cc1 (stereo not given) ?
OUT: > 100 µM

IN: Now the same for "O=C(NCc1ccc(Cn2c(=O)sn(-c3ccccc3)c2=O)cc1)OCc1ccc2c(Br)cc(Br)c(O)c2n1"
OUT: 1.96 µM

IN: Then this compound: "COC(=O)CCCC(=O)O"
OUT: > 100 µM

IN: Also need CC(C)(C)c1cc(C2=NN(c3ccccc3)C(c3ccccc3)C2)cc(C(C)(C)C)c1O (stereo not given) , thanks.
OUT: > 100 µM

* * *

- System: HOP-62 NSCLC
- METHOD: NCI tumour cell line growth inhibition, 48 h
QUANTITY: TGI

IN: I'm curious: which TGI was measured for CCOC(=O)C(C(=S)Nc1ccccc1)c1nn2c(=O)cc(C)nc2s1 (stereo unspecified) tested on HOP-62 NSCLC?
OUT: > 100 µM

IN: # repeat for CC1C[C@@H]2C(=O)NC(=O)[C@@H]2c2c1c1ccccc1n2C (stereo partly specified)
OUT: > 100 µM

IN: Same question for CCCCCCCCCCCCOP(=O)(O)OCC(N)C(=O)O (stereo unspecified) please.
OUT: 31.6 µM

IN: Would you mind doing "CCCCCCOP(=O)(OCCCCCC)C(NC(=O)OCC)(C(F)(F)F)C(F)(F)F" as well?
OUT: > 100 µM

IN: What about this compound? CCCCS(=O)(=O)CCC(N)C(=O)O (stereo unspecified)
OUT: > 100 µM

IN: Item: CC1(Cl)CCC2(CC(Br)=CC3OC32C)CC1Br (stereo unspecified)
OUT: 87.4 µM

* * *

- Tested on: OVCAR-3 ovarian
- METHOD: NCI tumour cell line growth inhibition, 48 h; in the data active means GI50 below about 0.43 µM; inactive means the rest
Give one outcome, nothing more. List: 1 for active, -1 for inactive

IN: Fill in: this test's call for "CN1CCN(c2ccc3nc(-c4ccc5nc(-c6ccc(OCCC(C)(C)C)cc6)[nH]c5c4)[nH]c3c2)CC1" is ___
OUT: -1

IN: Param item: "COc1cc(/C=C/C(=O)c2ccc(NC(=O)CN3CCN(c4cc5c(cc4F)c(=O)c(C(=O)O)cn5C4CC4)CC3)cc2)cc(OC)c1OC"
OUT: 1

IN: // same read-out, input: "Cc1cc(Cl)ccc1NC(=O)c1cc2ccccc2cc1O"
OUT: 1

IN: Then this compound: "COc1ccc(Nc2c3ccccc3nc3ccccc23)cc1"
OUT: -1

IN: Repeat for the following compound: "Nc1nc(-c2ccccc2)nc(N)c1N=O"
OUT: -1

IN: And the next one, "COc1cc2c(cc1C)NC(=O)/C2=C\c1cccc(Oc2ccccc2)c1" ?
OUT: -1

IN: Another: "Cc1cc(N(CCNc2ccnc3cc(Cl)ccc23)Cc2ccco2)nc(Cl)n1"
OUT: -1

IN: Queued: "CCNC(=O)c1cc2c(-c3cc(C(C)(C)O)ccc3Oc3c(C)cc(F)cc3C)cn(C)c(=O)c2[nH]1"
OUT: -1

IN: What about this compound? "N#Cc1c(N)nc(N2CCOCC2)c(C#N)c1-c1cccnc1"
OUT: -1

IN: For "O=C(Nc1ccccc1)NS(=O)(=O)c1ccc(-n2nc3c(c2-c2ccc(Cl)cc2)Cc2ccccc2-3)cc1" then?
OUT: -1

IN: Also "CC(=O)O[C@]1(C(C)=O)CC[C@H]2[C@@H]3C=C(C)C4=CC(=O)CC[C@]4(C)[C@H]3CC[C@@]21C" ?
OUT: -1

IN: Same for "COC(=O)C1=C(C)NC(C)=C(C(=O)OC)C1/C=C(Cl)/C=C/c1ccccc1"
OUT: -1

* * *

- System: HL-60(TB) leukemia
- METHOD: NCI tumour cell line growth inhibition, 48 h
QUANTITY: log10 TGI (log10 of the value in µM)
Transform log10 | Measure TGI | Unit µM

IN: What log10 TGI value was documented for this compound, CC(=Nc1ccccc1)C1=C(O)C(Cc2ccccc2)NC1=O (centres undefined) ?
OUT: -1.17

IN: Please answer likewise for "CC1(C)[C@@H](O[C@@H]2OC[C@@H](O[C@@H]3O[C@H](CO)[C@@H](O)[C@H](O)[C@H]3O[C@@H]3OC[C@@H](O)[C@H](O)[C@H]3O)[C@H](O)[C@H]2O[C@@H]2O[C@H](CO)[C@@H](O)[C@H](O)[C@H]2O)CC[C@]2(C)[C@H]3CC[C@]45OC[C@@]6(CC[C@](C)(C=O)C[C@H]64)[C@H](O)C[C@@]5(C)[C@]3(C)CC[C@@H]12"
OUT: 0.34

IN: Ok, now "CCCCCCCCCCCCCC[S+](C)C"
OUT: 0.39

IN: Now the same for O=C1C2C3C=CC(C2C(=O)N1COP(=O)(O)O)C1C2C(=O)N(COP(=O)(O)O)C(=O)C2C31 (centres undefined)
OUT: 1.48

IN: Field entry: "CSc1c(C#N)c(N)nc2c(N=Nc3ccc(Cl)cc3)c(N)nn12"
OUT: 0.72

IN: Then this compound: "O=C(O)/C(=C/C=C/c1ccccc1)c1csc(-c2nc(/C(=C\C=C\c3ccccc3)C(=O)O)cs2)n1"
OUT: 1.59

IN: Would you mind doing "O=C(/C=C/c1cc([N+](=O)[O-])ccc1Cl)c1ccccc1" as well?
OUT: 1.98

IN: What do we get for "CN(CC(=O)N(Cc1ccc(C2CCCCC2)cc1)c1ccc(C(=O)O)c(O)c1)S(=O)(=O)c1c(F)c(F)c(F)c(F)c1F" ?
OUT: 0.76

IN: Try this compound too: "CN1CCC(CN2c3ccccc3Sc3ccccc32)CC1"
OUT: 1.52

IN: Next: "C=C1CC/C=C(\C)C(=O)C[C@@H]2[C@@H]1CC2(C)C"
OUT: -0.29

IN: Try this compound next: "COC(=O)c1ccc(C)cc1/C=C1\Cc2ccc(C)cc2C1=O"
OUT: 1.26

IN: Same question for "C[C@@H](CO)[C@@H]1CCC=C2CC[C@]3(C)[C@H](CC[C@@H]4[C@@]5(C)CCCNC(C)(C)[C@@H]5CC[C@]43C)[C@H]21" please.
OUT: 0.66

IN: Also "CN(C)CCNC(=O)c1cccc2c1nc(-c1ccccc1)c1ccccc12" ?
OUT: 0.90
